Numbers sourced from patent US9162979B2.

Entries and their melting point values follow.

{"compound": "COc1ccc(-n2c(-c3ccc(S(C)(=O)=O)cc3)cc(CC(=O)OCCO)c2C)cc1", "melting point / °C": 105}
{"compound": "Cc1c(CC(=O)NCCCO[N+](=O)[O-])cc(-c2ccc(S(C)(=O)=O)cc2)n1-c1cccc(F)c1", "melting point / °C": 125}
{"compound": "Cc1c(CC(=O)OCCO)cc(-c2ccc(S(C)(=O)=O)cc2)n1-c1cccc(F)c1", "melting point / °C": 115}
{"compound": "Cc1c(C(N)C(=O)OCCO)cc(-c2ccc(S(C)(=O)=O)cc2)n1-c1cccc(F)c1 (racemic)", "melting point / °C": 102}
{"compound": "COc1ccc(-n2c(-c3ccc(S(C)(=O)=O)cc3)cc(CC(=O)OCCCO[N+](=O)[O-])c2C)cc1", "melting point / °C": 115}
{"compound": "COc1ccc(-n2c(-c3ccc(S(C)(=O)=O)cc3)cc(CC(=O)OCCCCO[N+](=O)[O-])c2C)cc1", "melting point / °C": 109}
{"compound": "Cc1c(CC(=O)NCCCO)cc(-c2ccc(S(C)(=O)=O)cc2)n1-c1ccc(F)cc1", "melting point / °C": 105}
{"compound": "Cc1c(CC(=O)NCCO)cc(-c2ccc(S(C)(=O)=O)cc2)n1-c1ccc(F)cc1", "melting point / °C": 99}
{"compound": "Cc1c(CC(=O)NCCCO[N+](=O)[O-])cc(-c2ccc(S(C)(=O)=O)cc2)n1-c1ccc(F)cc1", "melting point / °C": 127}

###

Test system: isolated rings of thoracic aorta
Experiment: Evaluation of release of NO: vasorelaxing activity on endothelium-denuded aortic rings contracted with KCl
Parameters: species or system rat
Details: Rattus norvegicus; concentration reducing contractile tone induced by 20 mM KCl by half; read-out: NO release properties pIC50 (vasorelaxing potency) (converted)
Method: The activity of the compounds was evaluated on isolated rings of thoracic aorta of normotensive male Wistar rats (250-350 g). After light anaesthesia with ether, the rats were sacrificed by cervical dislocation and exsanguination. […] Voltage changes were recorded by means of an isometric transducer (FTO3 Erba), connected to a microdynamometer (Buxco Electronics). […] Analysis of the results. The vasorelaxing activity was evaluated as a percentage (%) relative to the contractile tone induced by 20 mM KCl. […]
measurement label: IC50 (µM)

{"compound": "Cc1c(CC(=O)OCCO[N+](=O)[O-])cc(-c2ccc(S(C)(=O)=O)cc2)n1-c1ccc(F)cc1 [Example 2]", "recorded number": 3.47}
{"compound": "Cc1c(CC(=O)NCCO[N+](=O)[O-])cc(-c2ccc(S(C)(=O)=O)cc2)n1-c1ccc(F)cc1 [Example 23]", "recorded number": 4.9}
{"compound": "COc1ccc2cc([C@H](C)C(=O)OCCCCO[N+](=O)[O-])ccc2c1 [Naproxcinod, naproxcinod, reference compound]", "recorded number": 5.25}
{"compound": "Cc1c(CCOCCO[N+](=O)[O-])cc(-c2ccc(S(C)(=O)=O)cc2)n1-c1cccc(F)c1 [Example 38]", "recorded number": 4.79}
{"compound": "Cc1c(CCOCCO[N+](=O)[O-])cc(-c2ccc(S(C)(=O)=O)cc2)n1-c1ccccc1 [Example 36]", "recorded number": 6.03}
{"compound": "CSc1ccc(-n2c(-c3ccc(S(C)(=O)=O)cc3)cc(CC(=O)OCCCCO[N+](=O)[O-])c2C)cc1 [Example 14]", "recorded number": 5.01}
{"compound": "Cc1c(CC(=O)OCCCCO[N+](=O)[O-])cc(-c2ccc(S(C)(=O)=O)cc2)n1-c1cccc(F)c1 [Example 12]", "recorded number": 3.98}
{"compound": "Cc1c(CC(=O)OCCO[N+](=O)[O-])cc(-c2ccc(S(C)(=O)=O)cc2)n1-c1cccc(F)c1 [Example 3]", "recorded number": 0.331}
{"compound": "CSc1ccc(-n2c(-c3ccc(S(C)(=O)=O)cc3)cc(CC(=O)OCCO[N+](=O)[O-])c2C)cc1 [Example 5]", "recorded number": 0.457}
{"compound": "Cc1c(C(N)C(=O)OCCCCO[N+](=O)[O-])cc(-c2ccc(S(C)(=O)=O)cc2)n1-c1ccc(F)cc1 (racemic) [Example 20]", "recorded number": 1.55}
{"compound": "Cc1c(CC(=O)OCC(CO[N+](=O)[O-])O[N+](=O)[O-])cc(-c2ccc(S(C)(=O)=O)cc2)n1-c1ccccc1 (racemic) [Example 15]", "recorded number": 1.12}
{"compound": "Cc1c(C(N)C(=O)OCCO[N+](=O)[O-])cc(-c2ccc(S(C)(=O)=O)cc2)n1-c1ccc(F)cc1 (racemic) [Example 16]", "recorded number": 1.12}
{"compound": "Cc1c(C(N)C(=O)OCCCO[N+](=O)[O-])cc(-c2ccc(S(C)(=O)=O)cc2)n1-c1ccc(F)cc1 (racemic) [Example 18]", "recorded number": 2.19}
{"compound": "COc1ccc(-n2c(-c3ccc(S(C)(=O)=O)cc3)cc(CC(=O)OCCO[N+](=O)[O-])c2C)cc1 [Example 4]", "recorded number": 0.178}
{"compound": "Cc1c(CC(=O)OCCO[N+](=O)[O-])cc(-c2ccc(S(C)(=O)=O)cc2)n1-c1ccccc1 [Example 1]", "recorded number": 1.41}
{"compound": "Cc1c(CC(=O)OCCCO[N+](=O)[O-])cc(-c2ccc(S(C)(=O)=O)cc2)n1-c1cccc(F)c1 [Example 8]", "recorded number": 0.162}

###

molecular target: COX-2 (Mus musculus (Mouse), UniProt Q05769); test: Evaluation of COX-2 activity: PGE2 production in LPS-stimulated J774 cells; details: J774 cells stimulated 24 hours with LPS 10 μg/mL; PGE2 by radio-immunological assay; read-out: Cyclooxygenase inhibition COX-2 IC50
Sequence (Q05769 18-604): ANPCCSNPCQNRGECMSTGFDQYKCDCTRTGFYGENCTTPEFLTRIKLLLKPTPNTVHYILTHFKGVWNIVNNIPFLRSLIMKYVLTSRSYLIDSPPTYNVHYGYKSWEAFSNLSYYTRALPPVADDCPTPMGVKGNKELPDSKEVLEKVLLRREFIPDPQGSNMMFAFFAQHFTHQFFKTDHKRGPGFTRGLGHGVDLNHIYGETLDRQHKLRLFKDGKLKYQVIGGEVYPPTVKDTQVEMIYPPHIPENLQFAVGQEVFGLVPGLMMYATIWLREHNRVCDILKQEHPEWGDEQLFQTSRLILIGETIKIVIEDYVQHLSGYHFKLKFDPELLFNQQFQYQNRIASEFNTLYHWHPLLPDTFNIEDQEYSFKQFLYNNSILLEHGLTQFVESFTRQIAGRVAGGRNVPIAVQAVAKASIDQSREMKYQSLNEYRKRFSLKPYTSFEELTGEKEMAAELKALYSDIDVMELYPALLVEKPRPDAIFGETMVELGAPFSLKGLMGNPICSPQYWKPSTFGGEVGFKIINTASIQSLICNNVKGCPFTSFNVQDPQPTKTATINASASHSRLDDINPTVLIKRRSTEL
Entries and their IC50 values follow.

{"molecule": "COc1ccc(-n2c(-c3ccc(S(C)(=O)=O)cc3)cc(CC(=O)OCCCCO[N+](=O)[O-])c2C)cc1", "IC50, nM": 550}
{"molecule": "COc1ccc(-n2c(-c3ccc(S(C)(=O)=O)cc3)cc(CC(=O)OCCCCO)c2C)cc1", "IC50, nM": 1100}
{"molecule": "Cc1c(CC(=O)OCCCO[N+](=O)[O-])cc(-c2ccc(S(C)(=O)=O)cc2)n1-c1cccc(F)c1", "IC50, nM": 7}
{"molecule": "Cc1c(CC(=O)NC(CCO[N+](=O)[O-])C(=O)O)cc(-c2ccc(S(C)(=O)=O)cc2)n1-c1ccc(F)cc1 (racemic)", "IC50, nM": 1600}

###

tested on: rat liver homogenate; conditions: 1 mM
Entries and their T ½ values follow.

{"molecule": "Cc1c(CC(=O)OCCO[N+](=O)[O-])cc(-c2ccc(S(C)(=O)=O)cc2)n1-c1ccc(F)cc1", "T ½ / h": 1.14}
{"molecule": "Cc1c(CCOCCCO[N+](=O)[O-])cc(-c2ccc(S(C)(=O)=O)cc2)n1-c1cccc(F)c1", "T ½ / h": 1.41}
{"molecule": "COc1ccc2cc([C@H](C)C(=O)OCCCCO[N+](=O)[O-])ccc2c1 [Naproxcinod, naproxcinod, reference compound]", "T ½ / h": 0.143}
{"molecule": "Cc1c(CCOCCO[N+](=O)[O-])cc(-c2ccc(S(C)(=O)=O)cc2)n1-c1ccc(F)c(F)c1", "T ½ / h": 1.14}
{"molecule": "Cc1c(CCOCCO[N+](=O)[O-])cc(-c2ccc(S(C)(=O)=O)cc2)n1-c1cccc(F)c1", "T ½ / h": 1.01}
{"molecule": "Cc1c(CCOCCO[N+](=O)[O-])cc(-c2ccc(S(C)(=O)=O)cc2)n1-c1ccc(F)cc1", "T ½ / h": 0.713}

###

Entries and their melting point values follow.
Counter-ions that a name gives are not always drawn.
measurement label: melting point

{"compound": "Cc1c(C(N)C(=O)OCCCCO[N+](=O)[O-])cc(-c2ccc(S(C)(=O)=O)cc2)n1-c1cccc(F)c1 (racemic) [Example 21]", "measurement label": "melting point", "result": "110 °C"}
{"compound": "Cc1c(CCOCCCO[N+](=O)[O-])cc(-c2ccc(S(C)(=O)=O)cc2)n1-c1cccc(F)c1 (as salt: nitrate) [Example 42]", "measurement label": "melting point", "result": "111 to 113 °C"}
{"compound": "COc1ccc(-n2c(-c3ccc(S(C)(=O)=O)cc3)cc(CC(=O)OCCO[N+](=O)[O-])c2C)cc1 [Example 4]", "measurement label": "melting point", "result": "122 °C"}
{"compound": "Cc1c(C(N)C(=O)OCCCCO[N+](=O)[O-])cc(-c2ccc(S(C)(=O)=O)cc2)n1-c1ccc(F)cc1 (racemic) [Example 20]", "measurement label": "melting point", "result": "108 °C"}
{"compound": "Cc1c(CC(=O)NCCCO)cc(-c2ccc(S(C)(=O)=O)cc2)n1-c1cccc(F)c1 [Example 27-II]", "measurement label": "melting point", "result": "102 °C"}
{"compound": "Cc1c(CCOCCCO)cc(-c2ccc(S(C)(=O)=O)cc2)n1-c1ccc(F)cc1 [Example 41-II]", "measurement label": "melting point", "result": "100 to 102 °C"}
{"compound": "Cc1c(CCOCCCO[N+](=O)[O-])cc(-c2ccc(S(C)(=O)=O)cc2)n1-c1ccccc1 (as salt: nitrate) [Example 40]", "measurement label": "melting point", "result": "131 to 133 °C"}
{"compound": "Cc1c(CC(=O)NCCO[N+](=O)[O-])cc(-c2ccc(S(C)(=O)=O)cc2)n1-c1ccc(F)cc1 [Example 23]", "measurement label": "melting point", "result": "135 °C"}
{"compound": "Cc1c(CC(=O)OCCCO[N+](=O)[O-])cc(-c2ccc(S(C)(=O)=O)cc2)n1-c1ccc(F)cc1 [Example 7]", "measurement label": "melting point", "result": "126 to 128 °C"}
{"compound": "Cc1c(C(N)C(=O)OCCO)cc(-c2ccc(S(C)(=O)=O)cc2)n1-c1ccc(F)cc1 (racemic) [Example 16-II]", "measurement label": "melting point", "result": "102 °C"}
{"compound": "Cc1c(CC(=O)OCCCCO[N+](=O)[O-])cc(-c2ccc(S(C)(=O)=O)cc2)n1-c1cccc(F)c1 [Example 12]", "measurement label": "melting point", "result": "114 °C"}
{"compound": "Cc1c(CCOCCO[N+](=O)[O-])cc(-c2ccc(S(C)(=O)=O)cc2)n1-c1ccc(F)c(F)c1 (as salt: nitrate) [Example 39]", "measurement label": "melting point", "result": "93 to 96 °C"}
{"compound": "Cc1c(CCOCCO[N+](=O)[O-])cc(-c2ccc(S(C)(=O)=O)cc2)n1-c1cccc(F)c1 (as salt: nitrate) [Example 38]", "measurement label": "melting point", "result": "94 to 97 °C"}
{"compound": "Cc1c(C(N)C(=O)OCCCO[N+](=O)[O-])cc(-c2ccc(S(C)(=O)=O)cc2)n1-c1cccc(F)c1 (racemic) [Example 19]", "measurement label": "melting point", "result": "117 °C"}
